TARGET: E2F-1/DP1 heterodimer (UniProt Q01094;Q14186 Q01094:1-437,Q14186:1-410)
Sequence (Q01094 whole entry, chain 1 of 2): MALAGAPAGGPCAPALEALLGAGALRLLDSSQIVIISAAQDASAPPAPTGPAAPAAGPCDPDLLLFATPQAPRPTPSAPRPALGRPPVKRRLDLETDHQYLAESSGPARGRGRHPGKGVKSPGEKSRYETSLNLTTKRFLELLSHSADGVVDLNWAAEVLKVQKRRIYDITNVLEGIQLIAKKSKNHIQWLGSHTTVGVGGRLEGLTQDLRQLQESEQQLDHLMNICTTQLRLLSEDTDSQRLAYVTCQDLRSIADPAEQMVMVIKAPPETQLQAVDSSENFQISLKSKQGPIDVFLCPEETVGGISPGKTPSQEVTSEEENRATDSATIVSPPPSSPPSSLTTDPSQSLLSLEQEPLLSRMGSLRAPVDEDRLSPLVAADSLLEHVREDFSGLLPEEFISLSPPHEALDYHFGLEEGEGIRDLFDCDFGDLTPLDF
Sequence (Q14186 whole entry, chain 2 of 2): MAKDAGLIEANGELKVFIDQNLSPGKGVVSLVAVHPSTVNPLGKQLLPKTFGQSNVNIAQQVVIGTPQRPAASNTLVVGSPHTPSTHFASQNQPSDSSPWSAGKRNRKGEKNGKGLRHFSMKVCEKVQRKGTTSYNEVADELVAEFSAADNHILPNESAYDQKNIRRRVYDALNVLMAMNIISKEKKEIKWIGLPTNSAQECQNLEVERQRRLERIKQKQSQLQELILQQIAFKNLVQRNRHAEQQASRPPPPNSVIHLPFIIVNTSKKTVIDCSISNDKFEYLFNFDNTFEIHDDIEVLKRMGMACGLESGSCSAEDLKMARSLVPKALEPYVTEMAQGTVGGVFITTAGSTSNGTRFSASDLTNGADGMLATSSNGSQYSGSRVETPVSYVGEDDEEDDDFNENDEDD
ASSAY REMARKS: EMSA
CONDITION LABEL: tags: baculovirus-expressed
QUANTITY KIND: binding result

- Skp2 promoter region 3 (dsDNA) DNA 1: AGAGCGGGATGCAGAACTCCGCGCGCGCGGTGG DNA 2: CCACCGCGCGCGCGGAGTTCTGCATCCCGCTCT: binds
- Skp2 promoter region 4 (dsDNA) DNA 1: AGTTCGCGGGTCC DNA 2: GGACCCGCGAACT: binds
- Skp2 promoter region 2 (dsDNA) DNA 1: AATCCCGCCCGGCGCCGCAGG DNA 2: CCTGCGGCGCCGGGCGGGATT: binds
